tested on: Inward rectifier potassium channel 2 (Mus musculus) (UniProt P35561)
Sequence (P35561 whole entry, looked up): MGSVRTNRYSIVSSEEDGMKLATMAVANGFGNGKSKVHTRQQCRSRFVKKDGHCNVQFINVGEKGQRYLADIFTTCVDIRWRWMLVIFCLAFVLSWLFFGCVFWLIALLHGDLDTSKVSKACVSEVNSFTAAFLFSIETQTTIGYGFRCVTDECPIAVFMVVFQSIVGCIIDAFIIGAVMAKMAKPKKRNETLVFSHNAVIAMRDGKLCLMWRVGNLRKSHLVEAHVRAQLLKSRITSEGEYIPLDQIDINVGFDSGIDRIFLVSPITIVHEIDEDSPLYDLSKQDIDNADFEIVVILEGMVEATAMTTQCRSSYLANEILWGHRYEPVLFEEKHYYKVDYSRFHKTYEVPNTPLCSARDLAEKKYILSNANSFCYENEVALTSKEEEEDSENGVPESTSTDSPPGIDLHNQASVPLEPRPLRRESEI
method description: mouse Kir2.1 channel blockers, dose response, orthogonal assay for Kir2.1 inhibitor project, cell-based, automated electrophysiology, IonWorks patch clamp (AID 2581)
run conditions: Kir2.1 cell line, IonWorks patch clamp current at -100 mV; at 30 µM (top of the series)
The source made the active and inactive calls.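 Rule for the calls: active = any inhibition of Kir2.1 potassium channel current, measured at -100 mV, at any tested dose; inactive = no inhibition seen at any dose.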
measured metric: channel activity, lower = inhibition

Solved cases below.
molecule | channel activity, lower = inhibition
Clc1cccc(CNCc2cccc3ccccc23)c1 | inactive
Clc1ccc(CNCc2cccc3ccccc23)cc1 | inactive
COc1ccc(COCc2cccc3ccccc23)cc1 | inactive
FC(F)(F)Oc1ccc(CNCc2cccc3ccccc23)cc1 | inactive
COc1ccc(CNCc2cccnc2)cc1 | inactive
COc1ccc(CNC(C)c2cccc3ccccc23)cc1 (stereo not drawn) | inactive

Could you now look at the following molecule, please?
Data point: COc1cc(Br)c(CN(C)Cc2cccc3ccccc23)cc1OC ; channel activity, lower = inhibition = inactive
